assay: Cytotoxicity determination in HepG2.2.15 cells (CCK-8 cell viability); assay type: cell-based; conditions: human, 6 days treatment, CCK-8, highest concentration 100 uM
What CC50 at 6 days was measured for each of the following?
Only the number, expressed in µM, is required.

Reported CC50 at 6 days of CCOC(=O)C1=C(CN2CCO[C@H]3CN(CC(C)(C)C(=O)O)C(=O)[C@H]32)NC(c2nccs2)=N[C@H]1c1ccc(F)c(F)c1Cl (single isomer, unassigned) [Compound I-23A] : 45

Noted for CCOC(=O)C1=C(CN2CCO[C@H]3CN(CC(C)(C)C(=O)O)C(=O)[C@H]32)NC(c2nccs2)=N[C@H]1c1cccc(F)c1C (single isomer, unassigned) : its CC50 at 6 days reads 60.2

// CC50 at 6 days value for COC(=O)C1=C(CN2CCO[C@H]3CN(CC(C)(C)C(=O)O)C[C@H]32)NC(c2nccs2)=N[C@H]1c1cccc(F)c1Cl (single isomer, unassigned) [Compound I-16A] : 92.8

Just so you know, measured CC50 at 6 days for COC(=O)C1=C(CN2CCO[C@@H]3CN(C(=O)OC(C)(C)C)C[C@H]32)NC(c2ncc(F)cc2F)=N[C@@H]1c1ccc(F)cc1Cl (single isomer, unassigned) [Reference 1C, reference compound] came out at 3.7

Per the records, this molecule ( CCOC(=O)C1=C(CN2CCO[C@@H]3CN(c4ncc(C(=O)O)s4)C[C@@H]32)NC(c2nccs2)=N[C@H]1c1cccc(F)c1C (racemic) ) has CC50 at 6 days equal to 37.6

====

test: Cytotoxicity determination in HepG2.2.15 cells (CCK-8 cell viability); assay type: cell-based; conditions: human, 6 days treatment, CCK-8, highest concentration 100 uM
Exercise: state measured CC50 at 6 days for each of the compounds provided.
Numbers only; they are read as µM.

Quick note, CC50 at 6 days for COC(=O)C1=C(CN2CCO[C@@H]3CN(C(=O)OC(C)(C)C)C[C@@H]32)NC(c2ncc(F)cc2F)=N[C@H]1c1ccc(F)cc1Cl (single isomer, unassigned) [Reference 1G, reference compound] landed at 14.5

Kindly note the recorded CC50 at 6 days for CCOC(=O)C1=C(CN2CCO[C@H]3CN(C(=O)CC(C)(C)C(=O)O)C[C@H]32)NC(c2nccs2)=N[C@H]1c1cccc(F)c1C (relative stereo) [Compound I-2A] , which is 74

Looking up COC(=O)C1=C(CN2CCO[C@H]3CN(C(=O)OC(C)(C)C)C[C@H]32)NC(c2ncc(F)cc2F)=N[C@@H]1c1ccc(F)cc1Cl (single isomer, unassigned) [Reference 1F, reference compound] , I see its CC50 at 6 days listed as 5.8

Form field CC50 at 6 days, entry CCOC(=O)C1=C(CN2CCO[C@@H]3CN(C4CCC(C(=O)O)C4)C[C@@H]32)NC(c2nccs2)=N[C@H]1c1cccc(F)c1C (some centres unmarked) [Compound I-5] : 40.6

Input COC(=O)C1=C(CN2CCO[C@H]3CN(CC(C)(C)C(=O)O)C(=O)[C@H]32)NC(c2nccs2)=N[C@H]1c1ccc(F)c(F)c1C (single isomer, unassigned) [Compound I-17B] . Output CC50 at 6 days: 41.7

Value of CC50 at 6 days reported for the compound COC(=O)C1=C(CN2CCO[C@H]3CN(C(=O)OC(C)(C)C)C[C@@H]32)NC(c2ncc(F)cc2F)=N[C@@H]1c1ccc(F)cc1Cl (single isomer, unassigned) [Reference 1D, reference compound] is 5.6

CC50 at 6 days for CCOC(=O)C1=C(CN2CCO[C@H]3CN(CC(C)(C)C(=O)O)C[C@H]32)NC(c2nccs2)=N[C@H]1c1cccc(F)c1Cl (single isomer, unassigned) [Compound I-13A] is 67.1

// CCOC(=O)C1=C(CN2CCO[C@@H]3CN(CC(C)(C)C(=O)O)CC[C@@H]32)NC(c2nccs2)=N[C@H]1c1cccc(F)c1C (single isomer, unassigned) [Compound I-11A] : CC50 at 6 days value = 97.9

The compound CCOC(=O)C1=C(CN2CCO[C@H]3CN(CC(C)(C)C(=O)O)C[C@H]32)NC(c2nccs2)=N[C@H]1c1cccc(F)c1C (relative stereo) [Compound I-6A] showed CC50 at 6 days equal to 82.4

Query CCOC(=O)C1=C(CN2CCO[C@H]3CN(CC(C)(C)C(=O)O)C(=O)[C@H]32)NC(c2nccs2)=N[C@H]1c1cccc(F)c1Cl (single isomer, unassigned) [Compound I-18A] yields CC50 at 6 days of 62.4

Entry COC(=O)C1=C(CN2CCO[C@H]3CN(CC(C)(C)C(=O)O)C(=O)[C@H]32)NC(c2nccs2)=N[C@H]1c1ccc(F)c(F)c1Cl (single isomer, unassigned) [Compound I-22A] ; CC50 at 6 days = 44.3

// field: CC50 at 6 days; key: COC(=O)C1=C(CN2CCO[C@@H]3CN(C(=O)OC(C)(C)C)C[C@H]32)NC(c2ncc(F)cc2F)=N[C@H]1c1ccc(F)cc1Cl (single isomer, unassigned) [Reference 1A, reference compound] ; value = 14

====

system: HBV; test: Anti-viral assay in HepG2.2.15 cells: HBV DNA in culture medium by qPCR; type: cell-based; conditions: HepG2.2.15 cells, 6 days treatment, HBV DNA in culture medium by real-time PCR; read-out: EC50
Measured endpoint: EC50 (nM)
Lab book: enter the figure in nM, no units written.

For this compound ( CCOC(=O)C1=C(CN2CCO[C@H]3CN(CC(C)(C)C(=O)O)C(=O)[C@H]32)NC(c2nccs2)=N[C@H]1c1ccc(F)cc1Cl (relative stereo) [Compound I-20A] ), measured EC50 is 1

# compound COC(=O)C1=C(CN2CCO[C@H]3CN(CC(C)(C)C(=O)O)C(=O)[C@H]32)NC(c2nccs2)=N[C@H]1c1cccc(F)c1Cl (single isomer, unassigned) [Compound I-24A] ; its EC50 = 14

According to the records, this compound CCOC(=O)C1=C(CN2CCO[C@H]3CN(CC(C)(C)C(=O)O)C[C@H]32)NC(c2nccs2)=N[C@H]1c1ccc(F)cc1Cl (relative stereo) displays EC50 of 16

====

What CC50 at 6 days was measured for each of the following?
assay: Cytotoxicity determination in HepG2.2.15 cells (CCK-8 cell viability); format: cell-based; conditions: human, 6 days treatment, CCK-8, highest concentration 100 uM

Entry CCOC(=O)C1=C(CN2CCO[C@@H]3CN(S(C)(=O)=O)C[C@@H]32)NC(c2nccs2)=N[C@H]1c1cccc(F)c1C (racemic) [Compound I-7F] , CC50 at 6 days reported as 26.4 µM

Notebook: COC(=O)C1=C(CN2CCO[C@H]3CN(CC(C)(C)C(=O)O)C[C@H]32)NC(c2nccs2)=N[C@H]1c1cccc(F)c1C (single isomer, unassigned) [Compound I-14A] , CC50 at 6 days read as > 100 µM

The recorded CC50 at 6 days for CCOC(=O)C1=C(CN2CCO[C@@H]3CN(C(C)=O)C[C@@H]32)NC(c2nccs2)=N[C@H]1c1cccc(F)c1C (racemic) [Compound I-4E] is 48.3 µM

Please fill in: CC50 at 6 days reported for CCOC(=O)C1=C(CN2CCO[C@H]3CCN(CC(C)(C)C(=O)O)C[C@H]32)NC(c2nccs2)=N[C@H]1c1cccc(F)c1C (single isomer, unassigned) [Compound I-10A] = 94.5 µM

Reported CC50 at 6 days ( COC(=O)C1=C(CN2CCO[C@H]3CN(C(=O)OC(C)(C)C)C[C@H]32)NC(c2ncc(F)cc2F)=N[C@H]1c1ccc(F)cc1Cl (single isomer, unassigned) [Reference 1E, reference compound] ) = 11.7 µM

The recorded CC50 at 6 days for entry COC(=O)C1=C(CN2CCO[C@H]3CN(CC(C)(C)C(=O)O)C(=O)[C@H]32)NC(c2nccs2)=N[C@H]1c1cccc(F)c1C (single isomer, unassigned) [Compound I-19A] equals 59.1 µM

The molecule listed as CCOC(=O)C1=C(CN2CCO[C@@H]3CN(S(=O)(=O)C4CC(C)(C(=O)O)C4)C[C@@H]32)NC(c2nccs2)=N[C@H]1c1cccc(F)c1C (relative stereo) [Compound I-9F] shows CC50 at 6 days equal to 82.6 µM

// CC50 at 6 days lookup, molecule = COC(=O)C1=C(CN2CCO[C@@H]3CN(C(=O)OC(C)(C)C)C[C@@H]32)NC(c2ncc(F)cc2F)=N[C@@H]1c1ccc(F)cc1Cl (single isomer, unassigned) [Reference 1H, reference compound] , result: 8.7 µM

Notebook: COC(=O)C1=C(CN2CCO[C@H]3CN(CC(C)(C)C(=O)O)C[C@H]32)NC(c2nccs2)=N[C@H]1c1ccc(F)cc1Cl (single isomer, unassigned) [Compound I-15A] , CC50 at 6 days read as > 100 µM

According to the records, this molecule COC(=O)C1=C(CN2CCO[C@H]3CN(C(=O)OC(C)(C)C)C[C@@H]32)NC(c2ncc(F)cc2F)=N[C@H]1c1ccc(F)cc1Cl (single isomer, unassigned) [Reference 1B, reference compound] displays CC50 at 6 days of 2.5 µM
